For each record, write down the corresponding inhibition.
Test: E. coli Tat export inhibitors, primary screen, MC4100, TorA-mCherry reporter, fluorescence, single point (AID 488895);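 note: exported cargo escapes ClpAP degradation while cytoplasmic cargo is degraded and loses fluorescence; 0% = median of neutral control wells and 100% = median of NaSCN control wells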
Settings: at 10 µM, hits give high values
Out of some 340,000 compounds screened, about 120 (0.035%) were called active. The full list was thinned out, with actives kept by preference.
Provide only the numeric value, understood in %.

Task: Dear colleague, I am looking for the recorded inhibition of the following compound: CC(C)C(=O)Nc1ccc2c(c1)oc1ccccc12
Result: -2.62

Task: Dear colleague, I am looking for the recorded inhibition of the following compound: Cc1ccc(C(=O)NC2CCCC(C)C2C)cc1S(=O)(=O)N1CCCCC1 (stereo not given)
Result: -3.8

Task: Dear colleague, I am looking for the recorded inhibition of the following compound: CC(=O)N1CCSc2ccc(S(=O)(=O)N3CCC(C)CC3)cc21
Result: 2.03

Task: Dear colleague, I am looking for the recorded inhibition of the following compound: COc1ccc(C(=O)NCc2ccccc2C)cc1S(=O)(=O)NC1CCCC1
Result: -5.16

Task: Dear colleague, I am looking for the recorded inhibition of the following compound: Cc1ccc(NC(=S)NC(NC(=O)Cc2cccc3ccccc23)C(Cl)(Cl)Cl)cc1 (stereo not given)
Result: -13

Source: PubChem BioAssay AID488895
